Sourced from paper PMC10385579

- System: human epithelial (A-549) cancer cell line
- methodNotes: Antiproliferative assay, A-549
- Format: cell-based
- assayConditions: A549, read-out: Antiproliferative Activity IC50 ± SEM, A-549
propertyLabel: IC50 (nM)

I. CCc1c(C(=O)NCC(c2ccccc2)c2c(-c3ccccc3)[nH]c3ccccc23)[nH]c2ccc(Br)cc12 (centres unmarked) [Vd]
II. O=C(NCC(c1ccccc1)c1c(-c2ccccc2)[nH]c2ccccc12)c1cc2cc(Cl)ccc2[nH]1 (centres unmarked) [Compound Va]
III. O=C(NCC(c1ccccc1)c1c(-c2ccccc2)[nH]c2ccccc12)c1[nH]c2ccc(Cl)cc2c1CO (centres unmarked) [Ve]
Arrange the 3 entries by IC50 so the values rise. Answer format: the labels, ordered as requested.
II, III, I
(II: 25 nM, III: 42 nM, I: 64 nM)

1. Cc1c(C(=O)NCC(c2ccccc2)c2c(-c3ccccc3)[nH]c3ccccc23)[nH]c2ccc(Cl)cc12 (centres unmarked) [Vb]
2. CCc1c(C(=O)NCC(c2ccccc2)c2c(-c3ccccc3)[nH]c3ccccc23)oc2ccc(Cl)cc12 (centres unmarked) [Vi]
Task for the reader: decide whether 1 or 2 has the larger IC50. Identify your selection by its label.
2
(2: 86 nM, 1: 58 nM)

---

- testedSystem: EGFR (Homo sapiens, UniProt P00533)
- Sequence (P00533 669-1210): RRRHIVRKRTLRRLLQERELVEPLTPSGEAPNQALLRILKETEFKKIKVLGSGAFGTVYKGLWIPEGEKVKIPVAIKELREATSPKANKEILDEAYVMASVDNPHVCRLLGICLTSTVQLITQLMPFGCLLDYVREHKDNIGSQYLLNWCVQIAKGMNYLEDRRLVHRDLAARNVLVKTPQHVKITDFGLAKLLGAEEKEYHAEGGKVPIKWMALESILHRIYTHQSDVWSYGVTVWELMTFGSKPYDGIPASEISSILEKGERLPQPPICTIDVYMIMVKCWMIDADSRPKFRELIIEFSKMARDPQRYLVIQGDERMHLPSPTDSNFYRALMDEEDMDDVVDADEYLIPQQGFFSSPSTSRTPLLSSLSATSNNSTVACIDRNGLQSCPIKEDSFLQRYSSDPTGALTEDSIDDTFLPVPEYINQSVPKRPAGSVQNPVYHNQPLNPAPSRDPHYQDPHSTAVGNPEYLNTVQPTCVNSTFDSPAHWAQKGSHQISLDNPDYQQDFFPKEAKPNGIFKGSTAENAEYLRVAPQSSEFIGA
- methodNotes: EGFR inhibitory assay
pIC50: −log10 of the molar value.
propertyLabel: pIC50

CO/C=C/c1c(C(=O)NCC(c2ccccc2)c2c(-c3ccccc3)[nH]c3ccccc23)[nH]c2ccc(Cl)cc12 (centres unmarked) : 7.10
O=C(NCC(c1ccccc1)c1c(-c2ccccc2)[nH]c2ccccc12)c1cc2cc(Cl)ccc2[nH]1 (centres unmarked) : 7.15
CCOCc1c(C(=O)NCC(c2ccccc2)c2c(-c3ccccc3)[nH]c3ccccc23)[nH]c2ccc(Cl)cc12 (centres unmarked) : 7.07
O=C(NCC(c1ccccc1)c1c(-c2ccccc2)[nH]c2ccccc12)c1[nH]c2ccc(Cl)cc2c1CO (centres unmarked) : 7.03
O=C(NCC(c1ccccc1)c1c(-c2ccccc2)[nH]c2ccccc12)c1[nH]c2ccc(Cl)cc2c1-c1ccccc1 (centres unmarked) : 6.99

---

- methodNotes: Cell viability assay (MTT) on MCF-10A
- Type: cell-based
- assayConditions: human, MCF-10A mammary gland epithelial cells, MCF-10A cells, four days
Here the recorded viability at 96 h, 50 µM is given for each entry.
Express your answer in %, writing the number without its unit.

Worked set:
O=C(NCC(c1ccccc1)c1c(-c2ccccc2)[nH]c2ccccc12)c1cc2cc(Cl)ccc2[nH]1 (stereo not shown) [Compound Va] : 91
CO/C=C/c1c(C(=O)NCC(c2ccccc2)c2c(-c3ccccc3)[nH]c3ccccc23)[nH]c2ccc(Cl)cc12 (stereo not shown) [Compound Vg] : 89
Cc1c(C(=O)NCC(c2ccccc2)c2c(-c3ccccc3)[nH]c3ccccc23)[nH]c2ccc(Cl)cc12 (stereo not shown) [Vb] : 88
CCc1c(C(=O)NCC(c2ccccc2)c2c(-c3ccccc3)[nH]c3ccccc23)[nH]c2ccc(Br)cc12 (stereo not shown) [Vd] : 89
NCC(c1ccccc1)c1c(-c2ccccc2)[nH]c2ccccc12 (stereo not shown) [Compound IV] : 92
CCOCc1c(C(=O)NCC(c2ccccc2)c2c(-c3ccccc3)[nH]c3ccccc23)[nH]c2ccc(Cl)cc12 (stereo not shown) [Compound Vh] : 90

Would you kindly look at the next entry?
Dear colleague, I am looking for the recorded viability at 96 h, 50 µM of the following compound: O=C(NCC(c1ccccc1)c1c(-c2ccccc2)[nH]c2ccccc12)c1[nH]c2ccc(Cl)cc2c1-c1ccccc1 (stereo not shown) [Vf]
91

---

- testedSystem: VEGFR-2 (Homo sapiens, UniProt P35968)
- Sequence (P35968 20-1356): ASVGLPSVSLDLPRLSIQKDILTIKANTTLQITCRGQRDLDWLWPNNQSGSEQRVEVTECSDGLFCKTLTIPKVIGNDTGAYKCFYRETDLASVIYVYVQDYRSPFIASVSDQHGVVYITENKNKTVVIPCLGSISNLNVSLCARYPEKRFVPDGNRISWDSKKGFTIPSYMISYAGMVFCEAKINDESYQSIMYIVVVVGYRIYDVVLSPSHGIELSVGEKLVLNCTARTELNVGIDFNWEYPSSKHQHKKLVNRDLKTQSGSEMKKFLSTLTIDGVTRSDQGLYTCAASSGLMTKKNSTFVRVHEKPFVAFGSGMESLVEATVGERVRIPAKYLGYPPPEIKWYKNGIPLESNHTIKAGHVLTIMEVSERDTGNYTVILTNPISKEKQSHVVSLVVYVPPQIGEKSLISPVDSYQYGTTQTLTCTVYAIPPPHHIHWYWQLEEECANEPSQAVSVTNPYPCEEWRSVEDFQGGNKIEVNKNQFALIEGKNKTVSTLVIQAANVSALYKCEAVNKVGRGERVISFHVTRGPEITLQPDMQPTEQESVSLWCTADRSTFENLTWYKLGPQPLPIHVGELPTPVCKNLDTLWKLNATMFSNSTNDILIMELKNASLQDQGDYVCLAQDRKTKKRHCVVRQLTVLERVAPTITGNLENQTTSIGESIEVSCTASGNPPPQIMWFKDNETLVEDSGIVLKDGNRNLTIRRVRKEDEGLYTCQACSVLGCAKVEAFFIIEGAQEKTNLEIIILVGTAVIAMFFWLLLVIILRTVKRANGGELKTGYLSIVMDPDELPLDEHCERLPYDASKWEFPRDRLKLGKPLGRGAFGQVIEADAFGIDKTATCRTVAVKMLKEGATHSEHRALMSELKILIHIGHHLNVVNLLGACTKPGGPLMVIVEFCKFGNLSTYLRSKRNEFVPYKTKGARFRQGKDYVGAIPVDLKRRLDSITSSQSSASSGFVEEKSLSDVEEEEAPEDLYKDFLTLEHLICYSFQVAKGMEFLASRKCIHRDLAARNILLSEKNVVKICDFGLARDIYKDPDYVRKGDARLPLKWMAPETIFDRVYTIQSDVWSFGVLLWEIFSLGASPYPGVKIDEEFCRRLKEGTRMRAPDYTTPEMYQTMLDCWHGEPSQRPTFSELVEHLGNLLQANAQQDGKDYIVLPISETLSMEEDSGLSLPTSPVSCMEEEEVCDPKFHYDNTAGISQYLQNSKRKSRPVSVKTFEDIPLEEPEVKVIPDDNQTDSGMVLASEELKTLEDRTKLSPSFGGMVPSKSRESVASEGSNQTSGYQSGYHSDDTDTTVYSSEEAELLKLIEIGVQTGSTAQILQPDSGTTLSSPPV
- methodNotes: VEGFR-2 inhibitory assay
propertyLabel: IC50 (nM)

CO/C=C/c1c(C(=O)NCC(c2ccccc2)c2c(-c3ccccc3)[nH]c3ccccc23)[nH]c2ccc(Cl)cc12 (centres unmarked) [Compound Vg] : 1.6
O=C(NCC(c1ccccc1)c1c(-c2ccccc2)[nH]c2ccccc12)c1[nH]c2ccc(Cl)cc2c1-c1ccccc1 (centres unmarked) [Vf] : 2.5
CCOCc1c(C(=O)NCC(c2ccccc2)c2c(-c3ccccc3)[nH]c3ccccc23)[nH]c2ccc(Cl)cc12 (centres unmarked) [Compound Vh] : 3.25

I. O=C(NCC(c1ccccc1)c1c(-c2ccccc2)[nH]c2ccccc12)c1cc2cc(Cl)ccc2[nH]1 (centres unmarked) [Compound Va]
II. O=C(NCC(c1ccccc1)c1c(-c2ccccc2)[nH]c2ccccc12)c1[nH]c2ccc(Cl)cc2c1CO (centres unmarked) [Ve]
Task for the reader: decide whether I or II has the larger IC50. Identify your selection by its label.
I
(I: 2.15 nM, II: 1.1 nM)

---

- Tested on: four human cancer cell lines (A-549, MCF-7, Panc-1, HT-29)
- methodNotes: Antiproliferative assay, average over the four cancer cell lines (GI50)
- Format: cell-based
- assayConditions: average of the four cancer cell lines
propertyLabel: GI50 (nM)

P. O=C(NCC(c1ccccc1)c1c(-c2ccccc2)[nH]c2ccccc12)c1[nH]c2ccc(Cl)cc2c1-c1ccccc1 (stereo not shown) [Vf]
Q. O=C(NCC(c1ccccc1)c1c(-c2ccccc2)[nH]c2ccccc12)c1cc2cc(Cl)ccc2[nH]1 (stereo not shown) [Compound Va]
Task for the reader: decide whether P or Q has the larger GI50. Identify your selection by its label.
P

---

- testedSystem: BRAF^V600E (Mus musculus, UniProt P28028, V585E)
- Sequence (P28028 whole entry V585E): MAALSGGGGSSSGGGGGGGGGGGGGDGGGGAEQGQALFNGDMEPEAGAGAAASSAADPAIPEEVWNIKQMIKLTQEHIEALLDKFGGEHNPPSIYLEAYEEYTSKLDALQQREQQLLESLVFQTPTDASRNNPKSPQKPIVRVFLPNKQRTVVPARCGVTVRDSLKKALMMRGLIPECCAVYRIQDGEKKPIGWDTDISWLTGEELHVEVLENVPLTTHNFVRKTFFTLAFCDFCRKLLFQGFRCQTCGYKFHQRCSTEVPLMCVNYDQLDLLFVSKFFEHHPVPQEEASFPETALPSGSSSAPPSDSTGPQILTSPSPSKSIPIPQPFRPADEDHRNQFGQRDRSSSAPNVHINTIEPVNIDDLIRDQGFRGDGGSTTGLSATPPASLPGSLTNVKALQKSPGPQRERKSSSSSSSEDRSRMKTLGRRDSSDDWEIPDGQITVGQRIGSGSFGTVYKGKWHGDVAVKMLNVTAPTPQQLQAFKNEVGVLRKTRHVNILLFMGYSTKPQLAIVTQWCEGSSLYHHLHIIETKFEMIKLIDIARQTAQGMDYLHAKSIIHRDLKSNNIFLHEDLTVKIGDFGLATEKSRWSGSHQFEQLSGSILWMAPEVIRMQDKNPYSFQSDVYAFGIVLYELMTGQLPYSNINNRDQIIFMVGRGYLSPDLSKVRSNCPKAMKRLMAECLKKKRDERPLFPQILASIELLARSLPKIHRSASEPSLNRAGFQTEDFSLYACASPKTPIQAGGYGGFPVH
- methodNotes: BRAF^V600E inhibitory assay
pIC50: −log10 of the molar value.
propertyLabel: pIC50

CO/C=C/c1c(C(=O)NCC(c2ccccc2)c2c(-c3ccccc3)[nH]c3ccccc23)[nH]c2ccc(Cl)cc12 (centres unmarked) : 7.08
O=C(NCC(c1ccccc1)c1c(-c2ccccc2)[nH]c2ccccc12)c1[nH]c2ccc(Cl)cc2c1-c1ccccc1 (centres unmarked) : 6.97
O=C(NCC(c1ccccc1)c1c(-c2ccccc2)[nH]c2ccccc12)c1[nH]c2ccc(Cl)cc2c1CO (centres unmarked) : 7.01
CCOCc1c(C(=O)NCC(c2ccccc2)c2c(-c3ccccc3)[nH]c3ccccc23)[nH]c2ccc(Cl)cc12 (centres unmarked) : 7.05
O=C(NCC(c1ccccc1)c1c(-c2ccccc2)[nH]c2ccccc12)c1cc2cc(Cl)ccc2[nH]1 (centres unmarked) : 7.11

---

- Tested on: pancreatic cancer (Panc-1) cell line
- methodNotes: Antiproliferative assay, Panc-1
- Assay type: cell-based
- assayConditions: Homo sapiens, read-out: Antiproliferative Activity IC50 ± SEM, Panc-1
propertyLabel: IC50 (nM)

Worked set:
CO/C=C/c1c(C(=O)NCC(c2ccccc2)c2c(-c3ccccc3)[nH]c3ccccc23)[nH]c2ccc(Cl)cc12 (centres unmarked) : 30
CCc1c(C(=O)NCC(c2ccccc2)c2c(-c3ccccc3)[nH]c3ccccc23)[nH]c2ccc(Cl)cc12 (centres unmarked) : 56
Cc1c(C(=O)NCC(c2ccccc2)c2c(-c3ccccc3)[nH]c3ccccc23)[nH]c2ccc(Cl)cc12 (centres unmarked) : 58

P. CCc1c(C(=O)NCC(c2ccccc2)c2c(-c3ccccc3)[nH]c3ccccc23)oc2ccc(Cl)cc12 (centres unmarked)
Q. O=C(NCC(c1ccccc1)c1c(-c2ccccc2)[nH]c2ccccc12)c1cc2cc(Cl)ccc2[nH]1 (centres unmarked)
R. O=C(NCC(c1ccccc1)c1c(-c2ccccc2)[nH]c2ccccc12)c1[nH]c2ccc(Cl)cc2c1-c1ccccc1 (centres unmarked)
Thanks in advance: please rank these 3 entries by IC50, highest to lowest. Answer format: the labels, ordered as requested.
P, R, Q

---

- Test system: four human cancer cell lines (A-549, MCF-7, Panc-1, HT-29)
- methodNotes: Antiproliferative assay, average over the four cancer cell lines (GI50)
- Format: cell-based
- assayConditions: average of the four cancer cell lines
propertyLabel: GI50 (nM)

Worked set:
O=C(NCC(c1ccccc1)c1c(-c2ccccc2)[nH]c2ccccc12)c1[nH]c2ccc(Cl)cc2c1CO (stereo not drawn) : 44
CCc1c(C(=O)NCC(c2ccccc2)c2c(-c3ccccc3)[nH]c3ccccc23)oc2ccc(Cl)cc12 (stereo not drawn) : 86
CCOCc1c(C(=O)NCC(c2ccccc2)c2c(-c3ccccc3)[nH]c3ccccc23)[nH]c2ccc(Cl)cc12 (stereo not drawn) : 37
NCC(c1ccccc1)c1c(-c2ccccc2)[nH]c2ccccc12 (stereo not drawn) : 104

1. Cc1c(C(=O)NCC(c2ccccc2)c2c(-c3ccccc3)[nH]c3ccccc23)[nH]c2ccc(Cl)cc12 (stereo not drawn)
2. CO/C=C/c1c(C(=O)NCC(c2ccccc2)c2c(-c3ccccc3)[nH]c3ccccc23)[nH]c2ccc(Cl)cc12 (stereo not drawn)
// task: argmin of GI50 over [ 1 , 2 ] Identify your selection by its label.
2
(2: 31 nM, 1: 59 nM)

---

Here the recorded viability at 96 h, 50 µM is given for each entry.
- methodNotes: Cell viability assay (MTT) on MCF-10A
- Assay type: cell-based
- assayConditions: human, MCF-10A mammary gland epithelial cells, MCF-10A cells, four days
Express your answer in %, writing the number without its unit.

Worked set:
CCc1c(C(=O)NCC(c2ccccc2)c2c(-c3ccccc3)[nH]c3ccccc23)[nH]c2ccc(Cl)cc12 (stereo not drawn) [Compound Vc] : 91
O=C(NCC(c1ccccc1)c1c(-c2ccccc2)[nH]c2ccccc12)c1[nH]c2ccc(Cl)cc2c1CO (stereo not drawn) [Ve] : 90

Would you kindly look at the next entry?
Dear colleague, I am looking for the recorded viability at 96 h, 50 µM of the following compound: CCc1c(C(=O)NCC(c2ccccc2)c2c(-c3ccccc3)[nH]c3ccccc23)oc2ccc(Cl)cc12 (stereo not drawn) [Vi]
89
